Assayed Target: HLA-B*57:01
Assay Overview: IEDB peptide-MHC binding, purified MHC/direct/fluorescence; filed as Kd, often an IC50 or EC50 that approximates it; bounds were set here for any values at or beyond the usual limits of such assays
Experimental Parameters: source organism: Giardia lamblia ATCC 50803
Item-by-item account of Kd

# Query Sequence, Kd
data = [
    ("KLLQICMWF", "≥ 20 µM"),
    ("RENQVAVVR", "≥ 20 µM"),
]

* * *

Assayed Target: HLA-A*01:01
Assay Overview: IEDB peptide-MHC binding, purified MHC/direct/fluorescence; filed as Kd, often an IC50 or EC50 that approximates it; bounds were set here for any values at or beyond the usual limits of such assays
Experimental Parameters: source organism: Influenza A virus

# Query Sequence, Kd
records = [
    ("DWSGYSGSF", "≥ 20 µM"),
]

* * *

Assayed Target: HLA-A*03:01
Assay Overview: IEDB peptide-MHC binding, purified MHC/direct/fluorescence; filed as Kd, often an IC50 or EC50 that approximates it; bounds were set here for any values at or beyond the usual limits of such assays
Experimental Parameters: source organism: Pergamino virus
Metric Name: Kd

# Query Sequence, Metric Name, Assay Value
measured = [
    ("SCINGQCPY", "Kd", "≥ 20 µM"),
]

* * *

Assayed Target: HLA-B*44:02
Assay Overview: IEDB peptide-MHC binding, purified MHC/direct/fluorescence; filed as Kd, often an IC50 or EC50 that approximates it; bounds were set here for any values at or beyond the usual limits of such assays
Experimental Parameters: source organism: Escherichia coli O157:H7
pKd: −log10 of the molar value.

# Query Sequence, pKd
data = [
    ("VVPLYDTPL", "≤ 4.70"),
]

* * *

Assayed Target: HLA-A*02:06
Assay Overview: IEDB peptide-MHC binding, purified MHC/competitive/radioactivity; filed as Kd, often an IC50 or EC50 that approximates it; bounds were set here for any values at or beyond the usual limits of such assays
Experimental Parameters: source organism: Dengue virus 4 Philippines/H241/1956
Metric Name: Kd (nM)

# Query Sequence, Metric Name, Assay Value
data = [
    ("QILEENMEV", "Kd", 30.5),
    ("AVASGLLWV", "Kd", 11.7),
    ("TTANWLWAL", "Kd", 5.93),
    ("ITLDILTEI", "Kd", 8.88),
    ("GLLCLTLFV", "Kd", 16.4),
    ("FQPESPARL", "Kd", 36.9),
    ("TIMAVLFVV", "Kd", 127),
    ("RTIMAVLFV", "Kd", 19.4),
]

* * *

Assayed Target: HLA-A*11:01
Assay Overview: IEDB peptide-MHC binding, purified MHC/competitive/fluorescence; filed as Kd, often an IC50 or EC50 that approximates it; bounds were set here for any values at or beyond the usual limits of such assays
Experimental Parameters: source organism: Burkholderia mallei SAVP1
Metric Name: Kd

# Query Sequence, Assayed Target, Metric Name, Assay Value
data = [
    ("MVFGRFSFA", "HLA-A*11:01", "Kd", "1500 nM"),
]

* * *

Assayed Target: HLA-C*05:01
Assay Overview: IEDB peptide-MHC binding, purified MHC/direct/fluorescence; filed as Kd, often an IC50 or EC50 that approximates it; bounds were set here for any values at or beyond the usual limits of such assays
Experimental Parameters: source organism: Giardia lamblia ATCC 50803

# Query Sequence, Assayed Target, Kd
records = [
    ("YPFHIFYPV", "HLA-C*05:01", "≥ 20 µM"),
]

* * *

Assayed Target: HLA-B*51:01
Assay Overview: IEDB peptide-MHC binding, purified MHC/competitive/fluorescence; filed as Kd, often an IC50 or EC50 that approximates it; bounds were set here for any values at or beyond the usual limits of such assays
Experimental Parameters: source organism: Bacillus cereus ATCC 4342

# Query Sequence, Kd
data = [
    ("GLFWGGIWY", "≥ 20 µM"),
]

* * *

Assayed Target: HLA-B*51:01
Assay Overview: IEDB peptide-MHC binding, purified MHC/competitive/fluorescence; filed as Kd, often an IC50 or EC50 that approximates it; bounds were set here for any values at or beyond the usual limits of such assays
Experimental Parameters: source organism: Vibrio vulnificus

# Query Sequence, Assayed Target, Kd
rows = [
    ("DEWECTRDD", "HLA-B*51:01", "≥ 20 µM"),
]

* * *

Assayed Target: HLA-A*01:01
Assay Overview: IEDB peptide-MHC binding, purified MHC/direct/fluorescence; filed as Kd, often an IC50 or EC50 that approximates it; bounds were set here for any values at or beyond the usual limits of such assays
Experimental Parameters: source organism: Mammarenavirus juninense

# Query Sequence, Kd
measured = [
    ("NLITCNDHY", "≥ 20 µM"),
]

* * *

Assayed Target: HLA-B*08:03
Assay Overview: IEDB peptide-MHC binding, purified MHC/direct/fluorescence; filed as Kd, often an IC50 or EC50 that approximates it; bounds were set here for any values at or beyond the usual limits of such assays
Experimental Parameters: source organism: Cryptosporidium parvum Iowa II
pKd: −log10 of the molar value.
Metric Name: pKd

# Query Sequence, Assayed Target, Metric Name, Assay Value
rows = [
    ("RKWGLDFCY", "HLA-B*08:03", "pKd", "≤ 4.70"),
]

* * *

Assayed Target: HLA-A*26:02
Assay Overview: IEDB peptide-MHC binding, purified MHC/direct/fluorescence; filed as Kd, often an IC50 or EC50 that approximates it; bounds were set here for any values at or beyond the usual limits of such assays
Experimental Parameters: source organism: Giardia lamblia ATCC 50803

# Query Sequence, Kd
data = [
    ("RENQVAVVR", "≥ 20 µM"),
]

* * *

Assayed Target: HLA-A*29:02
Assay Overview: IEDB peptide-MHC binding, purified MHC/competitive/fluorescence; filed as Kd, often an IC50 or EC50 that approximates it; bounds were set here for any values at or beyond the usual limits of such assays
Experimental Parameters: source organism: Listeria monocytogenes EGD-e
pKd: −log10 of the molar value.
Metric Name: pKd

# Query Sequence, Assayed Target, Assay Value
records = [
    ("LAIVTTPLV", "HLA-A*29:02", "≤ 4.70"),
]

* * *

Assayed Target: HLA-B*18:01
Assay Overview: IEDB peptide-MHC binding, purified MHC/direct/fluorescence; filed as Kd, often an IC50 or EC50 that approximates it; bounds were set here for any values at or beyond the usual limits of such assays
Experimental Parameters: source organism: Influenza A virus (A/Viet Nam/HN/2004(H5N1))
pKd: −log10 of the molar value.

# Query Sequence, pKd
rows = [
    ("RRVRDNMTK", "≤ 4.70"),
]

* * *

Assayed Target: HLA-A*31:01
Assay Overview: IEDB peptide-MHC binding, purified MHC/direct/fluorescence; filed as Kd, often an IC50 or EC50 that approximates it; bounds were set here for any values at or beyond the usual limits of such assays
Experimental Parameters: source organism: Influenza A virus
pKd: −log10 of the molar value.

# Query Sequence, Assayed Target, pKd
measured = [
    ("DWSGYSGSF", "HLA-A*31:01", "≤ 4.70"),
]

* * *

Assayed Target: HLA-B*46:01
Assay Overview: IEDB peptide-MHC binding, purified MHC/competitive/fluorescence; filed as Kd, often an IC50 or EC50 that approximates it; bounds were set here for any values at or beyond the usual limits of such assays
Experimental Parameters: source organism: Shigella flexneri 5 str. 8401

# Query Sequence, Assayed Target, Kd
measured = [
    ("FGALFMWLL", "HLA-B*46:01", "≥ 20 µM"),
]

* * *

Assayed Target: HLA-A*02:11
Assay Overview: IEDB peptide-MHC binding, purified MHC/direct/fluorescence; filed as Kd, often an IC50 or EC50 that approximates it; bounds were set here for any values at or beyond the usual limits of such assays
Experimental Parameters: source organism: Pergamino virus

# Query Sequence, Kd
rows = [
    ("SCINGQCPY", "≥ 20 µM"),
]

* * *

Assayed Target: HLA-A*01:01
Assay Overview: IEDB peptide-MHC binding, purified MHC/competitive/fluorescence; filed as Kd, often an IC50 or EC50 that approximates it; bounds were set here for any values at or beyond the usual limits of such assays
Experimental Parameters: source organism: Vibrio cholerae 2740-80

# Query Sequence, Kd
data = [
    ("MGMEQTMSV", "≥ 5 µM"),
]

* * *

Assayed Target: HLA-B*08:03
Assay Overview: IEDB peptide-MHC binding, purified MHC/direct/fluorescence; filed as Kd, often an IC50 or EC50 that approximates it; bounds were set here for any values at or beyond the usual limits of such assays
Experimental Parameters: source organism: Variola virus
pKd: −log10 of the molar value.

# Query Sequence, pKd
records = [
    ("KYFDDVTAF", "≤ 4.70"),
]

* * *

Assayed Target: HLA-A*01:01
Assay Overview: IEDB peptide-MHC binding, purified MHC/competitive/fluorescence; filed as Kd, often an IC50 or EC50 that approximates it; bounds were set here for any values at or beyond the usual limits of such assays
Experimental Parameters: source organism: Burkholderia mallei SAVP1

# Query Sequence, Assayed Target, Kd
measured = [
    ("MVFGRFSFA", "HLA-A*01:01", "≥ 5 µM"),
]

Just for reference, the Immune Epitope Database (IEDB) is where these values come from.
